biological target: full-length beta-Catenin (Uniprot ID P35222) (Homo sapiens (Human)) (UniProt P35222); assay: fluorescence polarization competition; displacement of 5FAM-TCF4(10-53) from full-length beta-catenin
Sequence (P35222 whole entry): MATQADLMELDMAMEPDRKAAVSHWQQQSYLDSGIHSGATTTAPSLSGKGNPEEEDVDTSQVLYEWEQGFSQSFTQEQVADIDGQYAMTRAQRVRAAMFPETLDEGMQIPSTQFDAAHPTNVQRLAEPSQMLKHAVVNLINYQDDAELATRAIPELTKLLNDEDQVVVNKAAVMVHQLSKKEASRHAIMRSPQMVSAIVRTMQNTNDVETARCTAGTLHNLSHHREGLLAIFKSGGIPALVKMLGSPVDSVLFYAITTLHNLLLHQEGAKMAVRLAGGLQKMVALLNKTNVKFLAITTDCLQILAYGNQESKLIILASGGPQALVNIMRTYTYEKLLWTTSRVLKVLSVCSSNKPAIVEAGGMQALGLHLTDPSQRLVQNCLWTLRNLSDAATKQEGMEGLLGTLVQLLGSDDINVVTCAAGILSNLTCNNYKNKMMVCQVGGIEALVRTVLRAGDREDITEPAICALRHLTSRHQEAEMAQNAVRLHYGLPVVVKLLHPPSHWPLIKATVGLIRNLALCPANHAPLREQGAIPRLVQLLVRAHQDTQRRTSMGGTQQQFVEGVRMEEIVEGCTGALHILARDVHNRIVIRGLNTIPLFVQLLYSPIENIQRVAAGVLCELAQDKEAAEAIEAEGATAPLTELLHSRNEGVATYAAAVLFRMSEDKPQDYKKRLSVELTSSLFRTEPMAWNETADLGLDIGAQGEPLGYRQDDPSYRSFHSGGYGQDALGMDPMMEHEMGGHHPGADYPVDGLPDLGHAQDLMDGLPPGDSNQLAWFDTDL
Starred links: 1 amine or outer side, 2 acyl side, 3 side chain; linkers in the order of their positions; H or OH if unused. Positions of bridges follow the written chain, without caps; N, C: chain ends. Non-standard residues stand in square brackets, D forms with d. Primed or numbered codes have the meaning given here. *: point of attachment. PyrS2″ = (S)-3-amino-1-((pent-4-en-1-yloxy)carbonyl)pyrrolidine-3-carboxylic acid (stapling residue), C=CCCCOC(=O)N1CC[C@@](N[*:1])(C(=O)[*:2])C1; B5(5) = 2,2-bis(4-pentenyl)glycine, 2-amino-2-(pent-4-en-1-yl)hept-6-enoic acid (stitching residue), C=CCCCC(CCCC=C)(N[*:1])C(=O)[*:2]; PyrS2 = (S)-3-amino-1-((pent-4-en-1-yloxy)carbonyl)pyrrolidine-3-carboxylic acid, C=CCCCOC(=O)N1CC[C@@](N[*:1])(C(=O)[*:2])C1; Lithocholoyl = C[C@H](CCC(=O)*)[C@H]1CC[C@H]2[C@@H]3CC[C@@H]4C[C@H](O)CC[C@]4(C)[C@H]3CC[C@]12C; B5(3) = 2,2-bis(4-pentenyl)glycine (stitching residue), C=CCCCC(CCCC=C)(N[*:1])C(=O)[*:2]; Nva(5-morpholino) = N[C@@H](CCCN1CCOCC1)C(=O)O; Phe(2-Cl) = N[C@@H](Cc1ccccc1Cl)C(=O)O; 2Nal = N[C@@H](Cc1ccc2ccccc2c1)C(=O)O; Bta = N[C@@H](Cc1csc2ccccc12)C(=O)O; αAllylPro = C=CC[C@@]1(C(=O)O)CCCN1; tBuAla = CC(C)(C)C[C@H](N)C(=O)O; 3Thi = N[C@@H](Cc1ccsc1)C(=O)O; S8 = C=CCCCCCC[C@](C)(N)C(=O)O; Nle = CCCC[C@H](N)C(=O)O
quantityMeasured: pIC50
Worth noting: pIC50 values are minus log10 of concentrations stated in mol/L.

Ac-[αAllylPro]D[Nle][B5(5)]DEAAFQ[S8]F[Bta]Q-NH2 (staple 1-4, 4-11) [I-1522: Ac-PL3-Asp-nLeu-B5-Asp-Glu-Ala-Ala-Phe-Gln-S8-Phe-BztA-Gln-NH2] ... 8.22
Ac-[αAllylPro]D[Nle][B5(5)]DEAAFQ[S8]F[Bta]Q-NH2 (staple 1-4, 4-11; also: staple isomer, earlier eluting HPLC peak) [I-1521: Ac-PL3-Asp-nLeu-B5-Asp-Glu-Ala-Ala-Phe-Gln-S8-Phe-BztA-Gln-NH2] ... 7.80
Ac-[αAllylPro]D[tBuAla][B5(3)]DD[Nva(5-morpholino)]AFL[PyrS2″][3Thi][Bta]Q-NH2 (staple 1-4, 4-11) [I-1481] ... 8.15
Ac-[αAllylPro]D[2Nal][B5(3)]DDAAFS[PyrS2″][Phe(2-Cl)][Bta]Q-NH2 (staple 1-4, 4-11) [I-1109] ... 7.62

For Ac-[αAllylPro]DK(Lithocholoyl)[B5(5)]DDAAFL[PyrS2][3Thi][Bta]Q-NH2 (staple 1-4, 4-11) [I-1469] , what is its reported pIC50? 7.02
